system: RARa:RXR (NR concentration 270 nM, RXRa partner concentration 90 nM); assay: PBM binding z-score (relative to random genomic background probes); higher = stronger binding; sequences stand for … in GC…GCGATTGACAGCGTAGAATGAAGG
Criterion: PBM binding z-score meeting or surpassing 3. Met: 1.0. Not met: 0.0.

Check if PBM binding z-score >= 3 (inclusive). Item: CGTCCAAGGTCAGAGTGGTCAGTGAATGCCGAGT 1.0

For this sequence, is measured PBM binding z-score 3 or higher? TCGAGTAGGTTACTCGGGGCATTCAGCCAACATA 0.0

Has TCTCGTTGGTCACGGAGGTCACACACGACGGGTA a recorded PBM binding z-score greater than or equal to 3? 1.0

Please tell me: is the sequence CTCGAAAGGTGGGTTGAGGTGAGTATACGGATAA at or over 3 in terms of PBM binding z-score? 0.0

Is it the case that CCTACTGGGCCAAGGTCATTAATCAGTCAAAGCA has PBM binding z-score reaching or exceeding 3? 1.0

State whether the measured PBM binding z-score reaches 3, counting equality as reaching it, for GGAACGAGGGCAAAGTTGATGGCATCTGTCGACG 0.0

Please tell me: is the sequence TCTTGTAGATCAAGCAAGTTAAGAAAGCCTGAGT at or over 3 in terms of PBM binding z-score? 0.0

Exam item: decide whether the reported PBM binding z-score for GCTCGGAGGACAAGGTCAGTGCTTTGTCCGTAGA is at least 3. 0.0

Please indicate if the recorded PBM binding z-score for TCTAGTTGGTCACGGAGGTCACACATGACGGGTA meets or exceeds 3. 1.0

Given ACTAGTTGGTCAGCTCAGGTCACACACAATTCGG , state whether its PBM binding z-score is at least 3. 0.0

Identify whether the reported PBM binding z-score of the following sequence is 3 or greater: TTTATTAGTTGAAGGGCAACCGACGAGTCCGTTT 0.0

----------
system: FXR:RXRa (NR concentration 270 nM, RXRa partner concentration 90 nM); assay: PBM binding z-score (relative to random genomic background probes); higher = stronger binding; sequences stand for … in GC…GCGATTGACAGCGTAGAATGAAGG
What PBM binding z-score was measured for each of the following?
Write the value as a bare number.

Need PBM binding z-score, item ACTATTAGCTGACTTAGGGCAACCGATACGACGC 0.00773

Which measured PBM binding z-score value corresponds to CTCGAAAGGTCCTGCTCAGGTGAGTATACCAAAC ? 0.485

So what does the record say about PBM binding z-score for GCTAGCAAGCCATTTGGGTCACTCAATGACGGGC ? -0.28

Fill in the blank: the reported PBM binding z-score of ACCTCTAGGTAAAAGTTCAGTGAATCCCGAGGAT is ____. 0.332

What PBM binding z-score value was documented for this sequence, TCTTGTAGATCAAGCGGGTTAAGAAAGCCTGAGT ? 0.257

Give its PBM binding z-score value. Item: CTCGAAAGGTCGGTTGAGGTGAATATACGGATAA 2.5

Reported PBM binding z-score for TCTTGTAGATCAGCAGGTTAAGACAGCTGGCCAA : what is it? 0.409

Fill in the blank: the reported PBM binding z-score of TAGCCTAGGTCAGATCGGGCCAGTATTCGCTATA is ____. 2.53

Find the recorded PBM binding z-score belonging to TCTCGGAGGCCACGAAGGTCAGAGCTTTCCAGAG and report it. 0.966

Entry GCTGCTAGGTCATCTGATGGTCAGCTAAAGCTCG has what PBM binding z-score? 3.98

For the sequence ATATGTAGGTTAAGGTTCATTCAGGTTGGTTCGC , what PBM binding z-score is on record? 3.46

I'd like to know its PBM binding z-score. The sequence in question is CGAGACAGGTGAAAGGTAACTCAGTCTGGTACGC 0.533
